System: S. aureus HIP12864, NR-46074
Assay: MIC assay
Assay type: cell-based, Staphylococcus aureus
Details: S. aureus HIP12864, NR-46074 VISA
outcome_measure: MIC (µg/mL)
Answers are plain numbers, in µg/mL.

# example entries with known answers
So, CCCCCCCCCCN(CCCCCCCCCC)C(N)=Nc1ccc(CN[C@@]2(C)C[C@H](O[C@H]3[C@H](Oc4c5cc6cc4Oc4ccc(cc4Cl)[C@@H](O)[C@@H](NC(=O)[C@@H](CC(C)C)NC)C(=O)N[C@@H](CC(N)=O)C(=O)N[C@H]6C(=O)N[C@H]4C(=O)N[C@H](C(=O)N[C@H](C(=O)O)c6cc(O)cc(O)c6-c6cc4ccc6O)[C@H](O)c4ccc(c(Cl)c4)O5)O[C@H](CO)[C@@H](O)[C@@H]3O)O[C@@H](C)[C@H]2O)cc1 [Compound 13] ? Its MIC was 16

So, CN[C@H](CC(C)C)C(=O)N[C@H]1C(=O)N[C@@H](CC(N)=O)C(=O)N[C@H]2C(=O)N[C@H]3C(=O)N[C@H](C(=O)N[C@H](C(=O)O)c4cc(O)cc(O)c4-c4cc3ccc4O)[C@H](O)c3ccc(c(Cl)c3)Oc3cc2cc(c3O[C@@H]2O[C@H](CO)[C@@H](O)[C@H](O)[C@H]2O[C@H]2C[C@](C)(NCc3ccc(N=C(N)NC/C=C(\C)CCC=C(C)C)cc3)[C@H](O)[C@H](C)O2)Oc2ccc(cc2Cl)[C@H]1O [Compound 14] ? Its MIC was 0.031

Continuing:
So, CCCCCCNC(N)=Nc1ccc(CNC2(C)CC(OC3C(Oc4c5cc6cc4Oc4ccc(cc4Cl)C(O)C4NC(=O)C(NC(=O)C6NC(=O)C(CC(N)=O)NC(=O)C(NC(=O)C(CC(C)C)NC)C(O)c6ccc(c(Cl)c6)O5)c5ccc(O)c(c5)-c5c(O)cc(O)cc5C(C(=O)O)NC4=O)OC(CO)C(O)C3O)OC(C)C2O)cc1 (stereo not drawn) [Compound 4] ? Its MIC was 0.5

* * *

Tested on: Escherichia coli ATCC 25922
Assay: MIC assay
Format: cell-based
outcome_measure: MIC

So, `CN[C@H](CC(C)C)C(=O)N[C@H]1C(=O)N[C@@H](CC(N)=O)C(=O)N[C@H]2C(=O)N[C@H]3C(=O)N[C@H](C(=O)N[C@H](C(=O)O)c4cc(O)cc(O)c4-c4cc3ccc4O)[C@H](O)c3ccc(c(Cl)c3)Oc3cc2cc(c3O[C@@H]2O[C@H](CO)[C@@H](O)[C@H](O)[C@H]2O[C@H]2C[C@](C)(NCc3ccc(N=C(N)NC/C=C(\C)CCC=C(C)C)cc3)[C@H](O)[C@H](C)O2)Oc2ccc(cc2Cl)[C@H]1O` ? Its MIC was >128 µg/mL

* * *

Assay: Cytotoxicity assay for HepG2 (MTT)
Type: cell-based, human
Details: human; MTT, HepG2, 24 h, 10% FBS, n = 3; read-out: AC50
Field: AC50 at 24 h. Provide a value for each of the compounds that follow.

# example entries with known answers
So, CN[C@H](CC(C)C)C(=O)N[C@H]1C(=O)N[C@@H](CC(N)=O)C(=O)N[C@H]2C(=O)N[C@H]3C(=O)N[C@H](C(=O)N[C@H](C(=O)O)c4cc(O)cc(O)c4-c4cc3ccc4O)[C@H](O)c3ccc(c(Cl)c3)Oc3cc2cc(c3O[C@@H]2O[C@H](CO)[C@@H](O)[C@H](O)[C@H]2O[C@H]2C[C@](C)(N)[C@H](O)[C@H](C)O2)Oc2ccc(cc2Cl)[C@H]1O [Vancomycin, reference compound] ? Its AC50 at 24 h was > 100 µM

So, CCCCCCCCCCNCCN[C@@]1(C)C[C@H](O[C@H]2[C@H](Oc3c4cc5cc3Oc3ccc(cc3Cl)[C@@H](O)[C@@H](NC(=O)[C@@H](CC(C)C)NC)C(=O)N[C@@H](CC(N)=O)C(=O)N[C@H]5C(=O)N[C@H]3C(=O)N[C@H](C(=O)N[C@H](C(=O)O)c5cc(O)c(CNCP(=O)(O)O)c(O)c5-c5cc3ccc5O)[C@H](O)c3ccc(c(Cl)c3)O4)O[C@H](CO)[C@@H](O)[C@@H]2O)O[C@@H](C)[C@H]1O [Telavancin, reference compound] ? Its AC50 at 24 h was > 100 µM

Continuing:
So, `CN[C@H](CC(C)C)C(=O)N[C@H]1C(=O)N[C@@H](CC(N)=O)C(=O)N[C@H]2C(=O)N[C@H]3C(=O)N[C@H](C(=O)N[C@H](C(=O)O)c4cc(O)cc(O)c4-c4cc3ccc4O)[C@H](O[C@H]3C[C@](C)(N)[C@@H](O)[C@H](C)O3)c3ccc(c(Cl)c3)Oc3cc2cc(c3O[C@@H]2O[C@H](CO)[C@@H](O)[C@H](O)[C@H]2O[C@H]2C[C@](C)(NCc3ccc(-c4ccc(Cl)cc4)cc3)[C@@H](O)[C@H](C)O2)Oc2ccc(cc2Cl)[C@H]1O` ? Its AC50 at 24 h was > 100 µM

* * *

System: E. faecium E155
Assay: microbe, parasite or virus in culture
Type: cell-based, Enterococcus faecium
Details: E. faecium E155 VRE (VanA)
outcome_measure: MIC

So, `CCCCCCCCNC(N)=Nc1ccc(CN[C@@]2(C)C[C@H](O[C@H]3[C@H](Oc4c5cc6cc4Oc4ccc(cc4Cl)[C@@H](O)[C@@H](NC(=O)[C@@H](CC(C)C)NC)C(=O)N[C@@H](CC(N)=O)C(=O)N[C@H]6C(=O)N[C@H]4C(=O)N[C@H](C(=O)N[C@H](C(=O)O)c6cc(O)cc(O)c6-c6cc4ccc6O)[C@H](O)c4ccc(c(Cl)c4)O5)O[C@H](CO)[C@@H](O)[C@@H]3O)O[C@@H](C)[C@H]2O)cc1` ? Its MIC was 1 µg/mL

So, `CN[C@H](CC(C)C)C(=O)N[C@H]1C(=O)N[C@@H](CC(N)=O)C(=O)N[C@H]2C(=O)N[C@H]3C(=O)N[C@H](C(=O)N[C@H](C(=O)O)c4cc(O)cc(O)c4-c4cc3ccc4O)[C@H](O)c3ccc(c(Cl)c3)Oc3cc2cc(c3O[C@@H]2O[C@H](CO)[C@@H](O)[C@H](O)[C@H]2O[C@H]2C[C@](C)(NCc3ccc(N=C(N)NC/C=C(\C)CCC=C(C)C)cc3)[C@H](O)[C@H](C)O2)Oc2ccc(cc2Cl)[C@H]1O` ? Its MIC was 1 µg/mL

Continuing:
So, `CCCCCCN(CCCCCC)C(N)=Nc1ccc(CN[C@@]2(C)C[C@H](O[C@H]3[C@H](Oc4c5cc6cc4Oc4ccc(cc4Cl)[C@@H](O)[C@@H](NC(=O)[C@@H](CC(C)C)NC)C(=O)N[C@@H](CC(N)=O)C(=O)N[C@H]6C(=O)N[C@H]4C(=O)N[C@H](C(=O)N[C@H](C(=O)O)c6cc(O)cc(O)c6-c6cc4ccc6O)[C@H](O)c4ccc(c(Cl)c4)O5)O[C@H](CO)[C@@H](O)[C@@H]3O)O[C@@H](C)[C@H]2O)cc1` ? Its MIC was 1 µg/mL

* * *

Field: MIC. Provide a value for each of the compounds that follow.
Test system: S. aureus ATCC29213
Experiment: MIC assay
Format: cell-based, Staphylococcus aureus
Conditions: S. aureus ATCC29213 MSSA
One number for each entry, in µg/mL.

Simply: `CCCCCCCCCCN(CCCCCCCCCC)C(N)=Nc1ccc(CN[C@@]2(C)C[C@H](O[C@H]3[C@H](Oc4c5cc6cc4Oc4ccc(cc4Cl)[C@@H](O)[C@@H](NC(=O)[C@@H](CC(C)C)NC)C(=O)N[C@@H](CC(N)=O)C(=O)N[C@H]6C(=O)N[C@H]4C(=O)N[C@H](C(=O)N[C@H](C(=O)O)c6cc(O)cc(O)c6-c6cc4ccc6O)[C@H](O)c4ccc(c(Cl)c4)O5)O[C@H](CO)[C@@H](O)[C@@H]3O)O[C@@H](C)[C@H]2O)cc1` , S. aureus ATCC29213, MIC = 16

Simply: `CCCCCCCCCCCCCCNC(N)=Nc1ccc(CN[C@@]2(C)C[C@H](O[C@H]3[C@H](Oc4c5cc6cc4Oc4ccc(cc4Cl)[C@@H](O)[C@@H](NC(=O)[C@@H](CC(C)C)NC)C(=O)N[C@@H](CC(N)=O)C(=O)N[C@H]6C(=O)N[C@H]4C(=O)N[C@H](C(=O)N[C@H](C(=O)O)c6cc(O)cc(O)c6-c6cc4ccc6O)[C@H](O)c4ccc(c(Cl)c4)O5)O[C@H](CO)[C@@H](O)[C@@H]3O)O[C@@H](C)[C@H]2O)cc1` , S. aureus ATCC29213, MIC = 2

Simply: `CCCCCCCCCCNC(N)=Nc1ccc(CN[C@@]2(C)C[C@H](O[C@H]3[C@H](Oc4c5cc6cc4Oc4ccc(cc4Cl)[C@@H](O)[C@@H](NC(=O)[C@@H](CC(C)C)NC)C(=O)N[C@@H](CC(N)=O)C(=O)N[C@H]6C(=O)N[C@H]4C(=O)N[C@H](C(=O)N[C@H](C(=O)O)c6cc(O)cc(O)c6-c6cc4ccc6O)[C@H](O)c4ccc(c(Cl)c4)O5)O[C@H](CO)[C@@H](O)[C@@H]3O)O[C@@H](C)[C@H]2O)cc1` , S. aureus ATCC29213, MIC = 0.01562

Shifting focus to the compound that follows.
Simply: `CN[C@H](CC(C)C)C(=O)N[C@H]1C(=O)N[C@@H](CC(N)=O)C(=O)N[C@H]2C(=O)N[C@H]3C(=O)N[C@H](C(=O)N[C@H](C(=O)O)c4cc(O)cc(O)c4-c4cc3ccc4O)[C@H](O)c3ccc(c(Cl)c3)Oc3cc2cc(c3O[C@@H]2O[C@H](CO)[C@@H](O)[C@H](O)[C@H]2O[C@H]2C[C@](C)(NCc3ccc(N=C(N)NC45CC6CC(CC(C6)C4)C5)cc3)[C@H](O)[C@H](C)O2)Oc2ccc(cc2Cl)[C@H]1O` , S. aureus ATCC29213, MIC = 0.016

From: patent US20230174584A1
